System: LOX IMVI
Assay: NCI tumour cell line growth inhibition, 48 h
Active and inactive are the calls of the source. Cut-off read from the data, not from the text of the source: active = GI50 up to about 1.1 µM and inactive = higher.
The molecules listed here are annotated with their GI50.
Readout Label: GI50

Molecule	Readout Label	Observed Value
Cc1cc(Br)cc(C)c1NC(=O)C(=O)C(C(=O)c1ccncc1)C1OC(=O)c2ccccc21 (centres undefined)	GI50	> 100 µM (inactive)
CC(C)(C)c1cc(C(=O)/C=C/C=C/c2ccccc2)cc(C(C)(C)C)c1O	GI50	19.8 µM (inactive)
c1cnc2nc3n(c2c1)CSC3	GI50	> 100 µM (inactive)
O=C1/C(=N\O)c2ccccc2S1(=O)=O	GI50	> 100 µM (inactive)
COC(=O)C1CCCN1C(=O)OC(C)(C)C (centres undefined)	GI50	> 100 µM (inactive)
CCOc1cc(C2CC(c3ccc(NS(=O)(=O)c4cc([N+](=O)[O-])ccc4C)cc3)=NN2)ccc1O (centres undefined)	GI50	22.5 µM (inactive)
CC(C)NC(=O)N(Nc1ccccc1)C(C)(C)C	GI50	> 100 µM (inactive)
CC(=O)C1C(=O)C(=O)N(CCN2C(=O)C(=O)C(C(C)=O)C2=O)C1=O (centres undefined)	GI50	> 100 µM (inactive)
O=C1CC2C(=O)N(Cc3ccccc3)C1C(S(=O)(=O)c1ccccc1)C2S(=O)(=O)c1ccccc1 (centres undefined)	GI50	1.68 µM (inactive)

----------
System: SK-MEL-2
Assay: NCI tumour cell line growth inhibition, 48 h
Calls of active or inactive are those of the source. Cut-off read from the data, not from the text of the source: active = GI50 up to about 1.1 µM and inactive = higher.
Outcomes: Yes (active), No (inactive)

Compound	Target Entity	Category
CN(C)CCn1c(=O)c2ccc(NCCCN(C)CCCNc3ccc4c(=O)n(CCN(C)C)c(=O)n5c6ccccc6c(=O)c3c45)c3c(=O)c4ccccc4n(c1=O)c23	SK-MEL-2	Yes
CC[C@@]1(O)CC(OC2CC(N3CCOCC3)C(O)C(C)O2)c2c(O)c3c(c(O)c2[C@H]1O)C(=O)c1cccc(O)c1C3=O (some centres undefined)	SK-MEL-2	Yes
COc1cc(-c2cc(-c3ccccc3)nc(-c3c(OC)ccc4c(C)cc(=O)oc34)c2)cc(OC)c1OC	SK-MEL-2	No
Cc1cn([C@H]2[C@@H](CO)C[C@H]2O)c(=O)[nH]c1=O	SK-MEL-2	No
N/N=c1/nc2n(c3ncccc13)C=CNN2	SK-MEL-2	No
Clc1ccccc1C(Nc1ncccn1)Nc1ncccn1	SK-MEL-2	No
CCOC(=O)Cc1csc(NC(NC(=O)OCC)(C(=O)OCC)C(F)(F)F)n1 (centres undefined)	SK-MEL-2	No
Cc1c(F)c(N)c2c(=O)cc(-c3ccc(NC(=O)[C@@H](N)CCCCN)c(F)c3)oc2c1F	SK-MEL-2	No
CC(C)(CO[C@H]1C[C@H]2CC[C@@]1(C)C2(C)C)[N+](=O)[O-]	SK-MEL-2	No

----------
System: MDA-MB-231
Assay: NCI tumour cell line growth inhibition, 48 h
The source made the active and inactive calls. Cut-off read from the data, not from the text of the source: active = GI50 up to about 1.1 µM and inactive = higher.
Readout Label: GI50

Compound	Observed Value
O=c1[nH]nc(-c2ccccc2)n1/N=C/c1cccs1	> 100 µM (inactive)
CC1=NNC(=O)C1C1CC(c2c[nH]c3ccccc23)=NNC1=S (stereo unspecified)	> 100 µM (inactive)
O=CN1CCN(c2ccc3ccc(O)nc3n2)CC1	> 100 µM (inactive)
OCc1ccc2c(c1)CC1(Cc3ccc(/C=N/O)cc3C1)C2 (stereo unspecified)	6.27 µM (inactive)
O=S(=O)(O)C(CO)c1ccccc1.O=S(=O)(O)Cc1ccccc1 (stereo unspecified)	> 100 µM (inactive)
CCC[C@H](O)[C@@H](CNc1cc(NC(C)=O)nc(NC(C)=O)n1)N(Cc1ccccc1)Cc1ccccc1	49.9 µM (inactive)
